Assay: in vitro
Conditions: human, Caco-2, Caco-2
*1 amine or outer side, *2 acyl side, *3 side chain or, on linkers, in order; H or OH if unused. Where a SMILES comes first, the peptide text is derived from it. Bridges are numbered along the chain shown (N, C = ends). [ ]: non-standard residue; d: D form. The star is where a group is joined. Glu(NHSO2Me) = CS(=O)(=O)NC(=O)CC[C@H](N)C(=O)O; NMePhe(3-Cl) = CN[C@@H](Cc1cccc(Cl)c1)C(=O)O; NMeF = CN[C@@H](Cc1ccccc1)C(=O)O; NMeGABA = CN(CCCC(=O)[*:2])[*:1]; NMeL = CN[C@@H](CC(C)C)C(=O)O; NMeV = CN[C@H](C(=O)O)C(C)C; NMeAbu = CC[C@H](NC)C(=O)O; Piperidide = C1CCN(*)CC1; Me2NCH2CH2 = CN(C)CC*; NBuGly = CCCCNCC(=O)O
assay_metric: Papp

- compound: "CC(C)C[C@@H]1NC(=O)[C@H](CC(C)C)N(C)C(=O)CCCN(C)C(=O)C[C@@H](C(=O)N2CCCCC2)NC(=O)[C@H](CC(C)C)N(C)C(=O)[C@H](CC(C)C)N(C)C(=O)[C@H]([C@@H](C)O)NC(=O)[C@H](CC(C)C)N(C)C(=O)[C@H](COCCN(C)C)NC(=O)[C@H](Cc2ccccc2)N(C)C(=O)[C@H](Cc2ccccc2)N(C)C1=O [pd54] ([NMeGABA][NMeL]L[NMeF][NMeF]S(Me2NCH2CH2)[NMeL]T[NMeL][NMeL]D-Piperidide; lactam N-11)"
  reported: "0.073 ×10⁻⁶ cm/s"

API: the following record is the query input.
# input Please report the recorded Papp for CCCCN1CC(=O)N(C)[C@@H](CC(C)C)C(=O)N[C@@H](CCC(=O)NS(C)(=O)=O)C(=O)N(C)[C@@H](Cc2cccc(Cl)c2)C(=O)N(C)[C@@H](C(C)C)C(=O)N[C@H](C(=O)N2CCCCC2)CC(=O)N[C@H](CC(C)C)C(=O)N(C)[C@@H](Cc2cccc(Cl)c2)C(=O)N[C@@H](CC(C)C)C(=O)N(C)[C@@H](CC)C(=O)N[C@@H]([C@@H](C)O)C1=O [pd61] ([dL][NMePhe(3-Cl)]L[NMeAbu]T[NBuGly][NMeL][Glu(NHSO2Me)][NMePhe(3-Cl)][NMeV]D-Piperidide; lactam N-11) .
# output < 0.094 ×10⁻⁶ cm/s

====

Experiment: in vitro
Conditions: human, Caco-2, Caco-2 (cm/sec)
*1 amine or outer side, *2 acyl side, *3 side chain or, on linkers, in order; H or OH if unused. Where a SMILES comes first, the peptide text is derived from it. Bridges are numbered along the chain shown (N, C = ends). [ ]: non-standard residue; d: D form. The star is where a group is joined. ξ: configuration not given here. X1 = COc1cc(C[C@H](N[*:1])C(=O)[*:2])ccc1C(=O)NO; X11 = CNC(=O)c1ccc(CCN(CC(=O)[*:2])[*:1])cc1OC; NMePhe(3-Cl) = CN[C@@H](Cc1cccc(Cl)c1)C(=O)O; NMehPhe = CN[C@@H](CCc1ccccc1)C(=O)O; X7 = O=C(C[C@H](COCCO)N[*:1])[*:2]; X6 = O=C([C@H](CCCCO)N[*:1])[*:2]; NMeF = CN[C@@H](Cc1ccccc1)C(=O)O; NMeL = CN[C@@H](CC(C)C)C(=O)O; Thr(3ξ) = CC(O)[C@H](N)C(=O)O; NMeV = CN[C@H](C(=O)O)C(C)C; NMeAbu = CC[C@H](NC)C(=O)O; Piperidide = C1CCN(*)CC1; dAbu = CC[C@@H](N)C(=O)O; NBuGly = CCCCNCC(=O)O; Isopentyl = CC(C)CC*; NPrGly = CCCNCC(=O)O; Propyl(3-OH) = OCCC*; Sar = CNCC(=O)O; tBu = CC(C)(C)*
Kindly supply the reported Papp values for the records listed here.

Consider the worked cases shown below.
- compound: "CCCN1CC(=O)N(C)[C@@H](CC(C)C)C(=O)N[C@@H](COCCC(C)C)C(=O)N(C)[C@@H](Cc2ccccc2)C(=O)N(C)[C@@H](CC(C)C)C(=O)N[C@H](C(=O)N2CCCCC2)CC(=O)N[C@H](CC)C(=O)N(C)[C@@H](CCc2ccccc2)C(=O)N[C@@H](CCCCO)C(=O)N(C)[C@@H](CC(C)C)C(=O)N[C@@H]([C@@H](C)O)C1=O [Compound B01] ([dAbu][NMehPhe][X6][NMeL]T[NPrGly][NMeL]S(Isopentyl)[NMeF][NMeL]D-Piperidide; lactam N-11)"
  Papp: "< 0.11 ×10⁻⁶ cm/s"
- compound: "CC[C@H](C)[C@@H]1NC(=O)[C@H](CC(C)C)N(C)C(=O)CN(C)C(=O)C[C@@H](C(=O)N2CCCCC2)NC(=O)[C@H](CC(C)C)N(C)C(=O)[C@H](Cc2ccc(C(=O)NO)c(OC)c2)NC(=O)[C@H](CC(C)C)N(C)C(=O)[C@H](Cc2cccc(Cl)c2)N(C)C(=O)CN(C)C(=O)[C@H](C(C)O)NC(=O)[C@H](CC(C)C)N(C)C1=O (stereo partly drawn) [AP261] ([Sar][NMeL]I[NMeL][Thr(3ξ)][Sar][NMePhe(3-Cl)][NMeL][X1][NMeL]D-Piperidide; lactam N-11)"
  Papp: "0.02 ×10⁻⁶ cm/s"
- compound: "CC[C@H]1C(=O)N[C@@H]([C@@H](C)O)C(=O)N(CCc2ccc(C(=O)NC)c(OC)c2)CC(=O)N(C)[C@@H](CC(C)C)C(=O)N[C@@H](COC(C)(C)C)C(=O)N(C)[C@@H](CC(C)C)C(=O)N(C)[C@@H](CC(C)C)C(=O)N[C@H](C(=O)N2CCCCC2)CC(=O)N[C@H](C)C(=O)N(C)[C@@H](Cc2ccccc2)C(=O)N[C@@H](CC(C)C)C(=O)N1C [AP216] ([dA][NMeF]L[NMeAbu]T[X11][NMeL]S(tBu)[NMeL][NMeL]D-Piperidide; lactam N-11)"
  Papp: "0.99 ×10⁻⁶ cm/s"
- compound: "CCCN1CC(=O)N(C)[C@@H](CC(C)C)C(=O)N[C@@H](CC(C)C)C(=O)N(C)[C@@H](Cc2ccccc2)C(=O)N(C)[C@@H](CC(C)C)C(=O)N[C@H](C(=O)N2CCCCC2)CC(=O)N[C@H](CC(C)C)C(=O)N(C)[C@@H](Cc2ccccc2)C(=O)N[C@@H](COCCO)CC(=O)N(C)[C@@H](CC(C)C)C(=O)N[C@@H]([C@@H](C)O)C1=O [AP20] ([dL][NMeF][X7][NMeL]T[NPrGly][NMeL]L[NMeF][NMeL]D-Piperidide; lactam N-11)"
  Papp: "0.37 ×10⁻⁶ cm/s"

API: the following record is the query input.
# input Please report the recorded Papp for CCCCN1CC(=O)N(C)[C@@H](Cc2ccccc2)C(=O)N[C@@H](COCCCO)C(=O)N(C)[C@@H](CC(C)C)C(=O)N[C@@H]([C@@H](C)O)C(=O)N(CCCC)CC(=O)N(C)[C@@H](Cc2ccccc2)C(=O)N(C)[C@@H](C(C)C)C(=O)N[C@@H](COC(C)(C)C)C(=O)N(C)[C@@H](CC(C)C)C(=O)N[C@H](C(=O)N2CCCCC2)CC1=O [AP95] ([NBuGly][NMeF]S(Propyl(3-OH))[NMeL]T[NBuGly][NMeF][NMeV]S(tBu)[NMeL]D-Piperidide; lactam N-11) .
# output 0.69 ×10⁻⁶ cm/s

====

Experiment: Membrane permeability test of cyclic peptides (Caco-2, modified/improved method of WO 2018/124162)
Settings: human, Caco-2, Caco-2 (cm/sec), membrane permeability of cyclic peptides, Caco-2
*1 amine or outer side, *2 acyl side, *3 side chain or, on linkers, in order; H or OH if unused. Where a SMILES comes first, the peptide text is derived from it. Bridges are numbered along the chain shown (N, C = ends). [ ]: non-standard residue; d: D form. The star is where a group is joined. ξ: configuration not given here. Phe(3-OMe,4-CONHMe) = CNC(=O)c1ccc(C[C@H](N)C(=O)O)cc1OC; CH2(1,2,4-oxadiazolon-3-yl) = O=c1[nH]c(C*)no1; Phe(4-COOH) = N[C@@H](Cc1ccc(C(=O)O)cc1)C(=O)O; X9 = O=C([C@@H](CN[*:1])COCCO)[*:2]; NMeF = CN[C@@H](Cc1ccccc1)C(=O)O; NMeI = CC[C@H](C)[C@H](NC)C(=O)O; NMeL = CN[C@@H](CC(C)C)C(=O)O; NMeAbu = CC[C@H](NC)C(=O)O; Piperidide = C1CCN(*)CC1; NBuGly = CCCCNCC(=O)O; NPrGly = CCCNCC(=O)O; ξS = NC(CO)C(=O)O; N(OH)Me = CN(O)*; Sar = CNCC(=O)O
Kindly supply the reported Papp values for the records listed here.
Answers are plain numbers, in ×10⁻⁶ cm/s.

Consider the worked cases shown below.
- compound: "CC[C@H](C)[C@H]1C(=O)N[C@@H]([C@@H](C)O)C(=O)N(C)CC(=O)N(C)[C@@H](CC)C(=O)N[C@H](C(=O)N2CCCCC2)CC(=O)N(C)[C@@H](CC(C)C)C(=O)N[C@@H](Cc2ccc(C(=O)N(C)O)cc2)C(=O)N(C)[C@@H](CC(C)C)C(=O)N(C)[C@@H](Cc2ccccc2)C(=O)N[C@@H](CC(C)C)C(=O)N(C)[C@@H](CC(C)C)C(=O)N1C [AP252] ([NMeL][Phe(4-COOH)](N(OH)Me)[NMeL][NMeF]L[NMeL][NMeI]T[Sar][NMeAbu]D-Piperidide; lactam N-11)"
  Papp [×10⁻⁶ cm/s]: 0.13
- compound: "CCCN1CC(=O)N(C)[C@@H](CC(C)C)C(=O)N[C@H](C(=O)N2CCCCC2)CC(=O)N(C)[C@@H](CC(C)C)C(=O)N[C@@H](Cc2ccccc2)C(=O)N(C)[C@@H](CC(C)C)C(=O)N(C)[C@@H](CC(C)C)C(=O)NC[C@@H](COCCO)C(=O)N(C)[C@@H](Cc2ccccc2)C(=O)N(C)[C@@H](CC(C)C)C(=O)N[C@@H]([C@@H](C)O)C1=O [AP132] ([NMeL]F[NMeL][NMeL][X9][NMeF][NMeL]T[NPrGly][NMeL]D-Piperidide; lactam N-11)"
  Papp [×10⁻⁶ cm/s]: 1.3
- compound: "CCCCN1CC(=O)N(C)[C@@H](CC(C)C)C(=O)N[C@H](C(=O)N2CCCCC2)CC(=O)N(C)[C@@H](CC(C)C)C(=O)NC(COCc2noc(=O)[nH]2)C(=O)N(C)[C@@H](CC(C)C)C(=O)N(C)[C@@H](CC(C)C)C(=O)N[C@@H](C(C)C)C(=O)N(C)[C@@H](Cc2ccccc2)C(=O)N(C)[C@@H](CC(C)C)C(=O)N[C@@H]([C@@H](C)O)C1=O (stereo partly drawn) [AP48] ([NMeL][ξS](CH2(1,2,4-oxadiazolon-3-yl))[NMeL][NMeL]V[NMeF][NMeL]T[NBuGly][NMeL]D-Piperidide; lactam N-11)"
  Papp [×10⁻⁶ cm/s]: 0.4

# input Please report the recorded Papp for CC[C@H](C)[C@H]1C(=O)N[C@@H]([C@@H](C)O)C(=O)N(C)CC(=O)N(C)[C@@H](CC)C(=O)N[C@H](C(=O)N2CCCCC2)CC(=O)N(C)[C@@H](CC(C)C)C(=O)N[C@@H](Cc2ccc(C(=O)NC)c(OC)c2)C(=O)N(C)[C@@H](CC(C)C)C(=O)N(C)[C@@H](Cc2ccccc2)C(=O)N[C@@H](CC(C)C)C(=O)N(C)[C@@H](CC(C)C)C(=O)N1C [AP31] ([NMeL][Phe(3-OMe,4-CONHMe)][NMeL][NMeF]L[NMeL][NMeI]T[Sar][NMeAbu]D-Piperidide; lactam N-11) .
# output 0.52
